B1: Far upstream element-binding protein 1, residues 98 to 169; numbered along this chain, Q96AE4 (parent)
chain: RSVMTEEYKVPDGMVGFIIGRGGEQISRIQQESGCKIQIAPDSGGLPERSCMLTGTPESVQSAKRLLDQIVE

Variants of: B1
Experiment: abundance fitness (aPCA) (normalised: wild type 0, dead -1); higher = more abundant; growth selection in yeast, the domain comes from the species named
Conditions: Homo sapiens
Below is a list of entries, each paired with its recorded abundance fitness value.
// print number alone

// solved cases for abundance fitness follow
Y8N -0.426
S2V -0.036
D42A -0.041

What measured abundance fitness goes with `Q31L` ?
-0.043

Repeat with `I37A`
-0.313

Please give the result for `G13I` too.
-0.034

Same read-out for `P57H` ?
-0.12

What do we get for `G34Q` ?
-0.086

Note, next up: `V71S`
-0.074

Moving on to `I29D`
-0.935

Reference for the values: the Human Domainome abundance scans (Beltran et al. 2025)
